B1: KLHL12 (parent)
chain: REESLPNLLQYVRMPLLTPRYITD

# Variants of: B1
# PROTOCOL SUMMARY: protein stability index of a GFP-peptide fusion (GPS, HEK-293T) (PSI 1-6); higher = more stable;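 also: lentivirally expressed fusions sorted by FACS into six bins by GFP to DsRed ratio, PSI derived from sequencing read proportions per bin multiplied by bin number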
# TEST CONTEXT: c terminus: a fixed tail appended
protein stability index of 3 or higher: Fulfilled. Under 3: Not fulfilled.

Q. Given the entry `E2G` , answer whether its protein stability index meets or surpasses 3.
A. Fulfilled

Q. Given the entry `S4L` , answer whether its protein stability index meets or surpasses 3.
A. Not fulfilled

Q. Given the entry `E2N` , answer whether its protein stability index meets or surpasses 3.
A. Not fulfilled

Q. Given the entry `E3G` , answer whether its protein stability index meets or surpasses 3.
A. Not fulfilled

Q. Given the entry `L8N` , answer whether its protein stability index meets or surpasses 3.
A. Fulfilled

More entries:
Q. Given the entry `R20N` , answer whether its protein stability index meets or surpasses 3.
A. Not fulfilled

// data source = the supplement of paper PMC10567573
